experimental_system: DRB1*07:01
test_context: modification not given
experimental_endpoint: IC50 (nM)
Your answer is read as nM, so omit the unit and give the number.

Give a short answer stating reported IC50 for GVYFASTEKSNIIRG [… (position 89)] .
99
